Test: Selectivity ratio of Ki for recombinant cannabinoid CB1 receptor to Ki for recombinant cannabinoid CB2 receptor

- molecule: "O=S(=O)(c1cc2ccccc2n1S(=O)(=O)c1ccccc1F)N1CCCC(CCNS(=O)(=O)C(F)(F)F)C1 (stereo not given)"
  Ratio Ki: 3
- molecule: "O=S(=O)(c1ccccc1F)c1ncccc1S(=O)(=O)N1CCC(CNS(=O)(=O)C(F)(F)F)CC1"
  Ratio Ki: 126
- molecule: "CCCC1(CNS(=O)(=O)C(F)(F)F)CCN(S(=O)(=O)c2cc3ccccc3n2S(=O)(=O)c2ccccc2F)CC1"
  Ratio Ki: 2520
- molecule: "O=S(=O)(c1cc2ccccc2n1S(=O)(=O)c1ccccc1F)N1CCC(O)(CNS(=O)(=O)C(F)(F)F)CC1"
  Ratio Ki: 4380
- molecule: "CC(C)(NS(=O)(=O)C(F)(F)F)C1CCN(S(=O)(=O)c2cc3ccccc3n2S(=O)(=O)c2ccccc2F)CC1"
  Ratio Ki: 171
